B1: RHOBTB3 (parent)
chain: QLQSMPSRELASMNLDIVDLLKKA

Variants of: B1
Assay: protein stability index of a GFP-peptide fusion (GPS, HEK-293T) (PSI 1-6); higher = more stable;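 also: lentivirally expressed fusions sorted by FACS into six bins by GFP to DsRed ratio, PSI derived from sequencing read proportions per bin multiplied by bin number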
Conditions: c terminus: a fixed tail appended
Cut-off 3 on protein stability index, inclusive. At or above means satisfied; below means not satisfied.

1. V18S :: satisfied
2. N14S :: satisfied
3. L2T :: satisfied
4. A11F :: not satisfied
5. S12A :: satisfied
6. S7C :: not satisfied
7. P6D :: satisfied
8. S12L :: satisfied
9. M13P :: satisfied
10. S4N :: not satisfied
11. L2W :: satisfied
12. N14D :: satisfied
13. D16Q :: satisfied
14. S12K :: satisfied
15. K23L :: not satisfied
16. L21M :: satisfied
17. I17R :: satisfied
18. A11S :: satisfied
19. K22S :: satisfied
20. P6K :: satisfied
21. L20S :: satisfied
22. M13L :: satisfied
23. M5Q :: satisfied
24. L21R :: satisfied
25. A24S :: satisfied
26. N14V :: not satisfied
27. D16V :: not satisfied
28. Q3L :: not satisfied
29. K23E :: satisfied
30. A11K :: not satisfied
31. E9P :: not satisfied
32. D19W :: not satisfied
33. D16R :: not satisfied
34. V18M :: satisfied
35. S4H :: satisfied
36. L21C :: satisfied
37. Q1W :: not satisfied
38. S4V :: satisfied
39. L15F :: satisfied
40. Q1R :: satisfied
41. P6F :: not satisfied
42. R8L :: not satisfied
